# MIC values compiled below
test system: E. coli TK-111; test: Antibacterial activity (MIC), agar dilution; format: cell-based; conditions: Escherichia coli, TK111, 20 h, E. coli TK-111; 10^6 cells per ml; 37° C., 20 hours; read-out: MIC

Item O=C(O)c1cn(-c2ccc(O)cc2)c(-c2ccc3sccc3c2)cc1=O ; assay system E. coli TK-111; MIC reported as ≤ 0.05 µg/mL

Item CC(=O)Oc1ccc(-n2cc(C(=O)OCCN(C)C)c(=O)cc2-c2ccc3c(ccn3C)c2)c(F)c1 ; assay system E. coli TK-111; MIC reported as ≤ 0.05 µg/mL

Item O=C(O)c1cn(-c2ccc(F)cc2)c(C=Cc2ccncc2)cc1=O ; assay system E. coli TK-111; MIC reported as 0.39 µg/mL

---

Tested on: E. coli NIHJ JC-2
Assay: Antibacterial activity (MIC), agar dilution
Format: cell-based
Conditions: Escherichia coli, NIHJJC2, 20 h, E. coli NIHJ JC-2; 10^6 cells per ml; 37° C., 20 hours; read-out: MIC
Excerpt: The amount of bacteria inoculated was 10^4 cells per plate (10^6 cells per ml).
Strictly below 0.4 µg/mL in MIC: met. Otherwise: not met.

Field: example entries. Status: answers known.
Compound | Label Value
O=C(O)c1cn(-c2ccc(O)cc2)c(-c2ccc(-c3ccc(Cl)s3)cc2)cc1=O | met
CC=Cc1cc(=O)c(C(=O)O)cn1-c1ccc(O)cc1C | not met
COc1ccc(-c2cc(=O)c(C(=O)O)cn2-c2ccc(O)cc2C)cc1 | met
O=C(O)c1cn(-c2ccc(O)cc2F)c(-c2ccc(N3CCCC3)cc2)cc1=O | met

**Query** Quick check: MIC of O=C(O)c1cn(-c2ccc(F)cc2)c(/C=C/c2ccccc2)cc1=O under 0.4 µg/mL?
**Result** not met

---

# MIC values compiled below
tested on: Pro. vulgaris GN3027; assay: Antibacterial activity (MIC), agar dilution; assay type: cell-based; details: Proteus vulgaris, GN3027, 20 h, Pro. vulgaris GN3027; 10^6 cells per ml; 37° C., 20 hours; read-out: MIC
# value in µg/mL; strip the unit string

Compound Structure | Value Measured
Cc1nc2ccc(-c3cc(=O)c(C(=O)O)cn3-c3ccc(O)cc3)cc2s1 | 0.39
Nc1ccc(-c2cc(=O)c(C(=O)O)cn2-c2ccc(O)cc2)cc1 | 0.39
CN(C)c1ccc(-c2cc(=O)c(C(=O)O)cn2-c2ccc(F)cc2O)cc1 | 0.39

Nc1ccc(-c2cc(=O)c(C(=O)O)cn2-c2ccc(F)cc2)cc1 has a reported MIC of 0.2

Cc1ccc(-c2ccc(-c3cc(=O)c(C(=O)O)cn3-c3ccc(O)cc3)cc2)s1 has a reported MIC of 0.1

O=C(O)c1cn(-c2ccc(O)cc2F)c(-c2ccc(N3CCCC3)cc2)cc1=O has a reported MIC of 0.2

---

system: Pro. vulgaris GN3027; experiment: Antibacterial activity (MIC), agar dilution; format: cell-based; details: Proteus vulgaris, GN3027, 20 h, Pro. vulgaris GN3027; 10^6 cells per ml; 37° C., 20 hours; read-out: MIC
Recorded Metric: MIC (µg/mL)
# value in µg/mL; strip the unit string

Compound Structure | Value Measured
O=C(O)c1cn(-c2ccc(F)cc2)c(-c2ccc(Br)s2)cc1=O | 0.39

CN(C)c1ccc(-c2cc(=O)c(C(=O)O)cn2-c2ccc(F)cc2)cc1 has a reported MIC of 0.39

CC(=O)Oc1ccc(-n2cc(C(=O)O)c(=O)cc2-c2cc3ccccc3s2)c(F)c1 has a reported MIC of 0.1

---

# MIC values compiled below
tested on: Ps. aeruginosa GN3379*; test: Antibacterial activity (MIC), agar dilution; type: cell-based; conditions: Pseudomonas aeruginosa, 20 h; Ps. aeruginosa GN3379, penicillinase-producing; 10^6 cells per ml; read-out: MIC
# value in µg/mL; strip the unit string

Reference set (3 entries):
Compound | Recorded Metric | U | Value Measured
Cc1cc(O)ccc1-n1cc(C(=O)O)c(=O)cc1/C=C/c1ccccc1 | MIC | µg/mL | 6.25
Cc1ccc(-c2ccc(-c3cc(=O)c(C(=O)O)cn3-c3ccc(O)cc3)cc2)s1 | MIC | µg/mL | 6.25
CC(=O)Oc1ccc(-n2cc(C(=O)OCCN(C)C)c(=O)cc2-c2ccc(N(C)C)cc2)cc1 [drawing 37] | MIC | µg/mL | 12.5

CN(C)c1ccc(-c2cc(=O)c(C(=O)O)cn2-c2cccc(O)c2)cc1 has a reported MIC of 6.25

COc1ccc(-c2cc(=O)c(C(=O)O)cn2-c2ccc(O)cc2C)cc1F has a reported MIC of 12.5

---

tested on: Ps. aeruginosa GN3379*; test: Antibacterial activity (MIC), agar dilution; format: cell-based; details: Pseudomonas aeruginosa, 20 h; Ps. aeruginosa GN3379, penicillinase-producing; 10^6 cells per ml; read-out: MIC
Strictly below 10 µg/mL in MIC: Met. Otherwise: Not met.

Field: example entries. Status: answers known.
Compound | Label Value
O=C(O)c1cn(-c2ccc(O)cc2)c(-c2ccc(-n3cccc3)cc2)cc1=O | Met
Cc1cc(O)ccc1-n1cc(C(=O)O)c(=O)cc1-c1ccc(N(C)C)cc1 | Met
O=C(O)c1cn(-c2ccc(O)cc2F)c(C2CC=CCC2)cc1=O (stereo not drawn) | Not met
O=C(O)c1cn(-c2ccc(F)cc2)c(-c2ccc(Br)s2)cc1=O | Not met
Nc1ccc(-c2cc(=O)c(C(=O)O)cn2-c2ccc(O)cc2)cc1 | Not met

Consider the additional compound presented here.
**Query** Quick check: MIC of CC(=O)Oc1ccc(-n2cc(C(=O)OCCN(C)C)c(=O)cc2-c2ccc3c(ccn3C)c2)c(F)c1 under 10 µg/mL?
**Result** Not met

---

system: Ps. aeruginosa GN3379*; assay: Antibacterial activity (MIC), agar dilution; format: cell-based; conditions: Pseudomonas aeruginosa, 20 h; Ps. aeruginosa GN3379, penicillinase-producing; 10^6 cells per ml; read-out: MIC
Strictly below 10 µg/mL in MIC: MET. Otherwise: NOT MET.

Compound | Label Value
O=C(O)c1cn(-c2ccc(F)cc2)c(-c2sccc2-c2ccc([N+](=O)[O-])cc2)cc1=O | NOT MET
O=C(O)c1cn(-c2ccc(O)cc2)c(C2CC=CCC2)cc1=O (stereo not shown) | NOT MET
CC(=O)Oc1ccc(-n2cc(C(=O)O)c(=O)cc2-c2ccc(N(C)C)cc2)c(C)c1 | MET

**Query** Quick check: MIC of Cc1cc(O)ccc1-n1cc(C(=O)O)c(=O)cc1-c1ccc2c(c1)NCCN2C under 10 µg/mL?
**Result** NOT MET

**Query** Quick check: MIC of COc1ccc(-c2cc(=O)c(C(=O)O)cn2-c2ccc(O)cc2C)cc1 under 10 µg/mL?
**Result** NOT MET

**Query** Quick check: MIC of Cc1cc(O)ccc1-n1cc(C(=O)O)c(=O)cc1-c1ccc2c(ccn2C)c1 under 10 µg/mL?
**Result** MET

**Query** Quick check: MIC of COc1ccc(-c2ccc(-c3cc(=O)c(C(=O)O)cn3-c3ccc(O)cc3)cc2)s1 under 10 µg/mL?
**Result** MET

**Query** Quick check: MIC of O=C(O)c1cn(-c2ccc(O)cc2F)c(-c2ccc(N3CCOCC3)cc2)cc1=O under 10 µg/mL?
**Result** NOT MET

**Query** Quick check: MIC of CN1CCCc2cc(-c3cc(=O)c(C(=O)O)cn3-c3ccc(O)cc3)ccc21 under 10 µg/mL?
**Result** NOT MET

**Query** Quick check: MIC of Cc1ccc(-c2cc(=O)c(C(=O)O)cn2-c2ccc(F)cc2)s1 under 10 µg/mL?
**Result** NOT MET

---

# MIC values compiled below
System: Kl. pneumoniae Y-4*
Test: Antibacterial activity (MIC), agar dilution
Format: cell-based
Conditions: Klebsiella pneumoniae, 20 h, Kl. pneumoniae Y-4, penicillinase-producing; 10^6 cells per ml; read-out: MIC
Source text: The amount of bacteria inoculated was 10^4 cells per plate (10^6 cells per ml). * Penicillinase-producing bacteria
# value in µg/mL; strip the unit string

Reference set (2 entries):
Compound Structure | Value Measured
O=C(O)c1cn(-c2ccc(O)cc2)c(-c2ccc(-c3cccs3)cc2)cc1=O | 0.78
Cn1ccc2cc(-c3cc(=O)c(C(=O)O)cn3-c3ccc(F)cc3)ccc21 | 3.13

Next molecule, please.
O=C(O)c1cn(-c2ccc(F)cc2)c(-c2ccc(Cl)cc2)cc1=O has a reported MIC of 25

---

test system: Kl. pneumoniae Y-4*; assay: Antibacterial activity (MIC), agar dilution; type: cell-based; details: Klebsiella pneumoniae, 20 h, Kl. pneumoniae Y-4, penicillinase-producing; 10^6 cells per ml; read-out: MIC
Strictly below 2 µg/mL in MIC: Y. Otherwise: N.

Field: example entries. Status: answers known.
Compound Structure | Label Value
Cc1cc(O)ccc1-n1cc(C(=O)O)c(=O)cc1C1CCCC1 | N
Cc1cc(O)ccc1-n1cc(C(=O)O)c(=O)cc1-c1ccc2c(ccn2C)c1 | Y
CN1CCc2cc(-c3cc(=O)c(C(=O)O)cn3-c3ccc(O)cc3)ccc21 | Y

**Query** Quick check: MIC of O=C(O)c1cn(-c2ccc(O)cc2)c(-c2ccc3ccsc3c2)cc1=O under 2 µg/mL?
**Result** Y

**Query** Quick check: MIC of O=C(O)c1cn(-c2ccc(O)cc2)c(-c2ccc(-n3cccn3)cc2)cc1=O under 2 µg/mL?
**Result** Y

**Query** Quick check: MIC of CN(C)c1ccc(-c2cc(=O)c(C(=O)O)cn2-c2ccc(OS(=O)(=O)O)cc2)cc1 under 2 µg/mL?
**Result** N

**Query** Quick check: MIC of Cc1cc(O)ccc1-n1cc(C(=O)O)c(=O)cc1-c1ccc2[nH]ccc2c1 under 2 µg/mL?
**Result** Y

**Query** Quick check: MIC of O=C(O)c1cn(-c2ccc(O)cc2)c(-c2ccc3cccnc3c2)cc1=O under 2 µg/mL?
**Result** N

**Query** Quick check: MIC of O=C(O)c1cn(-c2ccc(F)cc2)c(-c2sccc2-c2ccc([N+](=O)[O-])cc2)cc1=O under 2 µg/mL?
**Result** N

**Query** Quick check: MIC of Cc1ccc(-c2cc(=O)c(C(=O)O)cn2-c2ccc(F)cc2)s1 under 2 µg/mL?
**Result** N
